target_or_test_system: σ2 receptor (Rattus norvegicus, UniProt Q5U3Y7)
Construct: tissue Harlan Winkelmann; host or cells: rat liver membranes
Sequence (Q5U3Y7 1-176): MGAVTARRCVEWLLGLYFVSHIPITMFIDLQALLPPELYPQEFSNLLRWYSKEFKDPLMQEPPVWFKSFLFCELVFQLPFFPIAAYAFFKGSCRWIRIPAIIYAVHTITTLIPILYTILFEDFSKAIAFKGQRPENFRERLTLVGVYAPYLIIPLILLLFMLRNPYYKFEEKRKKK
procedure_text: Receptor binding assay with [3H]-ditolylguanidine on rat liver membranes
measurement_parameters: 3 nM [3H]-ditolylguanidine with 2 µM (+)-pentazocine, 180 min at room temperature, mean ± SEM, read-out: affinity to the σ2 receptor
pKi: −log10 of the molar value.
# pKi >= 7 gives Satisfied, anything below gives Not satisfied

// below: answered compounds
compound	category_label
COc1ccc2c(c1)CCN(CCCCSc1ccccc1)CC2O (centres unmarked) [formula (7)]	Not satisfied
COc1ccc2c(c1)CCN(CCCCc1ccccc1)CC2O (centres unmarked) [formula (1)]	Not satisfied
OC1CN(C2CCC(c3ccccc3)CC2)CCc2cc(OCc3ccccc3)ccc21 (centres unmarked) [formula (20)]	Not satisfied

Would you say OC1CN(CCCSc2ccccc2)CCc2cc(OCc3ccccc3)ccc21 (centres unmarked) [formula (12)] shows pKi at minimum 7?
Not satisfied

Would you say COc1ccc2c(c1)CCN(CCCCc1ccccc1)[C@H](C)[C@@H]2O [formula (18)] shows pKi at minimum 7?
Satisfied

Would you say COc1ccc2c(c1)CCN(CCCCc1ccccc1)[C@@H](C)[C@H]2O [formula (17)] shows pKi at minimum 7?
Satisfied

Would you say COc1ccc2c(c1)CCN(CCCC(=O)c1ccc(C(C)(C)C)cc1)CC2O (centres unmarked) [formula (14)] shows pKi at minimum 7?
Not satisfied

Would you say Oc1ccc2c(c1)CCN([C@H]1CC[C@H](c3ccccc3)CC1)CC2O (relative stereo) [formula (23)] shows pKi at minimum 7?
Satisfied

Would you say Oc1ccc2c(c1)CCN([C@H]1CC[C@@H](c3ccccc3)CC1)CC2O (relative stereo) [formula (21)] shows pKi at minimum 7?
Satisfied

Would you say OC1CN(C2CCC3(CC2)OCCO3)CCc2cc(OCc3ccccc3)ccc21 (centres unmarked) [formula (25)] shows pKi at minimum 7?
Not satisfied

Would you say Oc1ccc2c(c1)CCN(CCCOc1ccccc1)CC2O (centres unmarked) [formula (22)] shows pKi at minimum 7?
Satisfied

Would you say COc1ccc2c(c1)CCN(CCCCCc1ccccc1)CC2O (centres unmarked) [formula (5)] shows pKi at minimum 7?
Not satisfied

* * *

Entries and their pKi values follow.
target_or_test_system: polyamine binding site of the NR2B subunit of the NMDA receptor (Homo sapiens, UniProt Q05586+Q13224)
Construct: expressed in transfected cells; host or cells: mouse L(tk-) cells, dexamethasone-induced; gift from D. Steinhilber, University of Frankfurt
Sequence (Q13224 27-1484, other chains not shown): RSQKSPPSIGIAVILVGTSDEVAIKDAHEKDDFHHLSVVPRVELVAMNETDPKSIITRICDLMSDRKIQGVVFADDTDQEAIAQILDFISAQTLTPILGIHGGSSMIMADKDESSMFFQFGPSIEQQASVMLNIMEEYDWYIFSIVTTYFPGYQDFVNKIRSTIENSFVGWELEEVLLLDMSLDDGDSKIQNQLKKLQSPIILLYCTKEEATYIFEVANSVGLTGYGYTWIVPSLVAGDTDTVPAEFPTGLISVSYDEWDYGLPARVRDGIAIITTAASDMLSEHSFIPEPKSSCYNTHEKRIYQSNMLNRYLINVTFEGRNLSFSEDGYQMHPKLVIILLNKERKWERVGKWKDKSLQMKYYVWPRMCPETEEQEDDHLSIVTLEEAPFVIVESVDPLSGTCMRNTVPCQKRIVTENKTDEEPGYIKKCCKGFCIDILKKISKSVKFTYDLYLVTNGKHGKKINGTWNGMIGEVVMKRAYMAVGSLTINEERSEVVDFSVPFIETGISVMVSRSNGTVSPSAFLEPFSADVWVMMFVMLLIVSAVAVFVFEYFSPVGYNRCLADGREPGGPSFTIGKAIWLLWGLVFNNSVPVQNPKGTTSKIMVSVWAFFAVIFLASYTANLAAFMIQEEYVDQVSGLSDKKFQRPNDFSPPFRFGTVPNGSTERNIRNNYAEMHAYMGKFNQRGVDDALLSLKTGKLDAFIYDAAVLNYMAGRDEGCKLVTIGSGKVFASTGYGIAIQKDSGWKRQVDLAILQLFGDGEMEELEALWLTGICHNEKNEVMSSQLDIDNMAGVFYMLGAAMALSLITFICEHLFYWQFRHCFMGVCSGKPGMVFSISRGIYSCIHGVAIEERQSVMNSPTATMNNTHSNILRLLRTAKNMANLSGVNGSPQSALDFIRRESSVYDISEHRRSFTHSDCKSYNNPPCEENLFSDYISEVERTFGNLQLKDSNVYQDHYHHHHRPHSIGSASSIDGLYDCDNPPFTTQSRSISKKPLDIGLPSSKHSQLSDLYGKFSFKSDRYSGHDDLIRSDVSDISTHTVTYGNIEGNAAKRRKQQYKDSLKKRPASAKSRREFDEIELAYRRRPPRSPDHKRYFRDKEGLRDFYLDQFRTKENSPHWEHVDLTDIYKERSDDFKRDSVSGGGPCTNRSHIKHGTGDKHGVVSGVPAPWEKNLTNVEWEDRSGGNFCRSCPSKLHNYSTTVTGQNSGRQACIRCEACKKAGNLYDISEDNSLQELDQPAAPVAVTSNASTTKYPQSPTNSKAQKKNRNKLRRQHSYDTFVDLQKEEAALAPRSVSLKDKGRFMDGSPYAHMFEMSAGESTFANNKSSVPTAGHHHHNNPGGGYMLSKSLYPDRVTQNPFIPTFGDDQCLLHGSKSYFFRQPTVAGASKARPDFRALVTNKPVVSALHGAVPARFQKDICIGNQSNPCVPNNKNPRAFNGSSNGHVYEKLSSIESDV
procedure_text: Filtration-based receptor binding assay with [3H]-Ifenprodil as radioligand
measurement_parameters: 5 nM [3H]-Ifenprodil; membrane homogenates of mouse L(tk-) cells transfected with NR1-1a/NR2B; 180 min at 37 °C; Ki mean of three experiments ± S.E.M.; read-out: affinity to the NR2B binding site of the NMDA receptor
Please keep in mind that pKi is minus log10 of the molar concentration; only the number is needed.

The examples below pair each entry with its known result.
molecule	pKi
O=S(=O)(CCCN1CCc2cc(OCc3ccccc3)ccc2C(O)C1)c1ccccc1 (stereo not drawn) [formula (10)]	7.34
COc1ccc2c(c1)CCN(CCCCCc1ccccc1)CC2O (stereo not drawn) [formula (5)]	6.49

API: the following record is the query input.
pKi for C[C@@H]1[C@H](O)c2ccc(O)cc2CCN1CCCCc1ccccc1 [formula (27)] ?
7.91

* * *

target_or_test_system: σ1 receptor (Cavia porcellus, UniProt Q60492)
Construct: tissue Harlan Winkelmann; host or cells: guinea pig brain membranes
Sequence (Q60492 whole entry): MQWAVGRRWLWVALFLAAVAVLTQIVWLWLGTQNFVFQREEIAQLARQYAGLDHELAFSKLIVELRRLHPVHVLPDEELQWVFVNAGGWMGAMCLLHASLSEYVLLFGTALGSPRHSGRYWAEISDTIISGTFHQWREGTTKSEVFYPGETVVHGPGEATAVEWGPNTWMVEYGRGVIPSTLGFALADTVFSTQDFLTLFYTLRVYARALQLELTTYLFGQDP
procedure_text: Receptor binding assay with [3H]-(+)-pentazocine on guinea pig brain membranes
assay_endpoint: pKi
Please keep in mind that pKi is minus log10 of the molar concentration; only the number is needed.

pKi for CCCCCCCCN1CCc2cc(OC)ccc2C(O)C1 (stereo not shown) [formula (2)] ?
7.35

* * *

target_or_test_system: σ1 receptor (Cavia porcellus, UniProt Q60492)
Construct: tissue Harlan Winkelmann; host or cells: guinea pig brain membranes
procedure_text: Receptor binding assay with [3H]-(+)-pentazocine on guinea pig brain membranes
measurement_parameters: 2 nM [3H]-(+)-pentazocine; guinea pig brain membranes; 180 min at 37 °C; mean ± SEM; read-out: affinity to the σ1 receptor
assay_endpoint: pKi
Please keep in mind that pKi is minus log10 of the molar concentration; only the number is needed.

The examples below pair each entry with its known result.
compound	pKi
OC1CN(CCCCc2ccccc2)CCc2cc(OCc3ccccc3)ccc21 (centres unmarked)	6.53
CC(C)(C)c1ccc(C(=O)CCCN2CCc3cc(OCc4ccccc4)ccc3C(O)C2)cc1 (centres unmarked)	6.22
CN(Cc1ccccc1)C(=O)CN1CCc2cc(O)ccc2C(O)C1 (centres unmarked)	6.76
COc1ccc2c(c1)CCN(CCCSc1ccccc1)CC2O (centres unmarked)	6.81
COc1ccc2c(c1)CCN(CCCC(=O)c1ccc(C(C)(C)C)cc1)CC2O (centres unmarked)	7.35

pKi for O=S(=O)(CCCN1CCc2cc(OCc3ccccc3)ccc2C(O)C1)c1ccccc1 (centres unmarked) ?
6.46

pKi for C[C@H]1[C@@H](O)c2ccc(O)cc2CCN1CCCCc1ccccc1 ?
6.41

pKi for OC1CN(C2CCC3(CC2)OCCO3)CCc2cc(OCc3ccccc3)ccc21 (centres unmarked) ?
6.74

* * *

target_or_test_system: σ2 receptor (Rattus norvegicus, UniProt Q5U3Y7)
Construct: tissue Harlan Winkelmann; host or cells: rat liver membranes
Sequence (Q5U3Y7 1-176): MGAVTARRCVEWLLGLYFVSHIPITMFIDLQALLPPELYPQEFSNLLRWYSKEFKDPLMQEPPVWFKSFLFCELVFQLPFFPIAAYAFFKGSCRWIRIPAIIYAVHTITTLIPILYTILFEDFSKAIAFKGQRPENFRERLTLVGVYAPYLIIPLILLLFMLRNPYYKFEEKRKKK
procedure_text: Receptor binding assay with [3H]-ditolylguanidine on rat liver membranes
measurement_parameters: 3 nM [3H]-ditolylguanidine with 2 µM (+)-pentazocine, 180 min at room temperature, mean ± SEM, read-out: affinity to the σ2 receptor
Entries and their Ki values follow.
Provide only the numeric value, understood in µM.

molecule	Ki (µM)
O=C(c1ccccc1)N1CCC(N2CCc3cc(O)ccc3C(O)C2)CC1 (centres unmarked) [formula (26)]	0.0977

Ki for CCCCCCCCN1CCc2cc(OC)ccc2C(O)C1 (centres unmarked) [formula (2)] ?
0.108

Ki for C[C@H]1[C@@H](O)c2ccc(O)cc2CCN1CCCCc1ccccc1 [formula (28)] ?
0.103

Ki for COc1ccc2c(c1)CCN(C1CCC(c3ccccc3)CC1)CC2O (centres unmarked) [formula (3)] ?
0.0816

Ki for C[C@@H]1[C@H](O)c2ccc(O)cc2CCN1CCCCc1ccccc1 [formula (27)] ?
0.142

* * *

target_or_test_system: polyamine binding site of the NR2B subunit of the NMDA receptor (Homo sapiens, UniProt Q05586+Q13224)
Construct: expressed in transfected cells; host or cells: mouse L(tk-) cells, dexamethasone-induced; gift from D. Steinhilber, University of Frankfurt
procedure_text: Filtration-based receptor binding assay with [3H]-Ifenprodil as radioligand
measurement_parameters: 5 nM [3H]-Ifenprodil; membrane homogenates of mouse L(tk-) cells transfected with NR1-1a/NR2B; 180 min at 37 °C; Ki mean of three experiments ± S.E.M.; read-out: affinity to the NR2B binding site of the NMDA receptor
Entries and their Ki values follow.
Provide only the numeric value, understood in nM.

The examples below pair each entry with its known result.
molecule	unit_descriptor	meas_value
COc1ccc2c(c1)CCN(CCCC(=O)c1ccc(F)cc1)CC2O (stereo not drawn)	nM	258
COc1ccc2c(c1)CCN(CCCCc1ccccc1)[C@@H](C)[C@H]2O	nM	209
Oc1ccc2c(c1)CCN([C@H]1CC[C@@H](c3ccccc3)CC1)CC2O (relative stereo)	nM	4.86
OC1CN(CCCSc2ccccc2)CCc2cc(OCc3ccccc3)ccc21 (stereo not drawn)	nM	46

Ki for O=C(c1ccccc1)N1CCC(N2CCc3cc(O)ccc3C(O)C2)CC1 (stereo not drawn) ?
393

* * *

target_or_test_system: polyamine binding site of the NR2B subunit of the NMDA receptor (Homo sapiens, UniProt Q05586+Q13224)
Construct: expressed in transfected cells; host or cells: mouse L(tk-) cells, dexamethasone-induced; gift from D. Steinhilber, University of Frankfurt
procedure_text: Filtration-based receptor binding assay with [3H]-Ifenprodil as radioligand
measurement_parameters: 5 nM [3H]-Ifenprodil; membrane homogenates of mouse L(tk-) cells transfected with NR1-1a/NR2B; 180 min at 37 °C; Ki mean of three experiments ± S.E.M.; read-out: affinity to the NR2B binding site of the NMDA receptor
Entries and their pKi values follow.
Please keep in mind that pKi is minus log10 of the molar concentration; only the number is needed.

The examples below pair each entry with its known result.
compound	pKi
C[C@@H]1[C@@H](O)c2ccc(O)cc2CCN1CCCCc1ccccc1	7.79
C[C@H]1[C@@H](O)c2ccc(O)cc2CCN1CCCCc1ccccc1	7.66

pKi for COc1ccc2c(c1)CCN(CCCC1(c3ccc(F)cc3)OCC(C)(C)CO1)CC2O (stereo not shown) ?
6.97

pKi for Oc1ccc2c(c1)CCN(CCCOc1ccccc1)CC2O (stereo not shown) ?
7.63
